# Format: in vivo, human
# experimental_context: human, whole blood, po
readout_name: half-life (h)

> print(dat)
                                   compound  units.label  observed.value
1  CCC[C@H](N[C@@H](C)C(=O)N1[C@H](C(=O)O)C[C@@H]2CCCC[C@@H]21)C(=O)OCC [Perindopril, perindopril]            h            1.11
2  CCC[C@H](N[C@@H](C)C(=O)N1[C@H](C(=O)O)C[C@@H]2CCCC[C@@H]21)C(=O)O [Perindoprilat, perindoprilat]            h            18.2
3  CC1Cc2ccccc2N1NC(=O)c1ccc(Cl)c(S(N)(=O)=O)c1 (stereo not drawn) [Indapamide, indapamide]            h            13.5

----------
Listing of entries alongside the reported concentration at 2 h.
# Type: in vivo, human
# experimental_context: human, whole blood, po
readout_name: concentration at 2 h (ng/mL)

> print(dat)
                                   compound  observed.value
1  CCC[C@H](N[C@@H](C)C(=O)N1[C@H](C(=O)O)C[C@@H]2CCCC[C@@H]21)C(=O)OCC            7.35
2  CCC[C@H](N[C@@H](C)C(=O)N1[C@H](C(=O)O)C[C@@H]2CCCC[C@@H]21)C(=O)O            1.31
3  CC1Cc2ccccc2N1NC(=O)c1ccc(Cl)c(S(N)(=O)=O)c1 (stereo not drawn) [Indapamide, indapamide]            14.9

----------
# Assay type: in vivo, human
# experimental_context: human, plasma, po
Readings of concentration at 2 h for the listed molecules
readout_name: concentration at 2 h (ng/mL)

> print(dat)
                                   molecule          readout.name  units.label  observed.value
1  CC1Cc2ccccc2N1NC(=O)c1ccc(Cl)c(S(N)(=O)=O)c1 (stereo not drawn) [Indapamide, indapamide]  concentration at 2 h        ng/mL            5.32
2  CCC[C@H](N[C@@H](C)C(=O)N1[C@H](C(=O)O)C[C@@H]2CCCC[C@@H]21)C(=O)O  concentration at 2 h        ng/mL            2.49
3  CCC[C@H](N[C@@H](C)C(=O)N1[C@H](C(=O)O)C[C@@H]2CCCC[C@@H]21)C(=O)OCC  concentration at 2 h        ng/mL            11.1

Ref: paper PMC6190495
